Task for the reader: assign each of the following compounds its reported growth.
test system: U251 CNS; test: NCI-60 one-dose screen, 48 h (100 = growth as untreated, 0 = no growth, -100 = all killed); details: 10 µM unless noted
About 83,000 compounds went through this panel and 20% of them were active in at least one assay; those are over-represented in the sample as a whole.
Report as a plain number; the unit % is understood.

q: I'd like to know its growth. The compound in question is Cc1cc(C)cc(NC2=C(Cl)C(=O)c3nc(C)ccc3C2=O)c1
a: 89.8

q: Need growth, item COC(=O)c1ccc(NC2=C(Cl)C(=O)c3nc(C)ccc3C2=O)cc1
a: 46.9

q: Report growth for CCCCCN1C(=O)/C(=c2\sc3n(c2=O)C2C(NN=3)N(CC)C(=O)N2CC)c2cccc(C)c21 (stereo not given) please.
a: 61

q: May I ask what growth has been recorded for C#CCOc1cccc(-c2nc(N)nc(Nc3ccccc3SSc3ccccc3Nc3nc(N)nc(-c4cccc(OCC#C)c4)n3)n2)c1 ?
a: -48.9

q: What value of measured growth is listed for CCCc1[nH]c(-c2cc(N)ccc2Cl)c2c1C(=O)CCCC2 ?
a: 102

---

tested on: EKVX NSCLC; assay: NCI-60 one-dose screen, 48 h (100 = growth as untreated, 0 = no growth, -100 = all killed); details: 10 µM unless noted
This is part of a sample that, as a whole, favours compounds with a hit. Of some 83,000 tested, about 20% had one in any assay.
Binary label based on growth with cut-off 80%: below gives class 1, not below gives class 0.

q: Check if growth falls below 80% for NC(=O)c1c(NC(=O)c2ccc(C(F)(F)F)cc2)sc2c1CCC(=O)C2 .
a: class 1

q: Hello, is growth of the following compound strictly smaller than 80%? CCCCSC1=C(Cl)CN(c2ccccc2)C1=O
a: class 0

q: # strict comparison: is reported growth < 80%? input = COc1cc(C(=O)c2cc(C(C)=O)c3ccc(C)cn23)cc(OC)c1OC
a: class 1

---

system: HS 578T breast; assay: NCI-60 one-dose screen, 48 h; conditions: 10 µM unless noted
The panel holds about 83,000 compounds, 20% with a hit somewhere; the sample as a whole holds those more often. The source made the active and inactive calls. How the source made its calls: active means growth percent below 10; inactive means the rest.
Result category, one only: active, inactive

q: Check the results log: what was the call for O=C(CSc1nnc(-c2cccs2)n1-c1ccccc1)Nc1ccccc1F ?
a: inactive

q: // param item: COc1ccc(C(=O)c2c(N)c(C#N)cn2-c2ccc(Cl)cc2Cl)cc1 ; yields the recorded call
a: inactive

q: Could you check what this test reported for CC(C)(C)OC(=O)Nc1ccc(-c2cccc(Oc3ccc4nnc(Cl)n4n3)c2)cc1 ?
a: inactive

q: Fill in: this test's call for COc1cc(C(=O)c2cc(C(C)=O)c3cccc(C)n23)cc(OC)c1OC is ___
a: inactive

q: Check the results log: what was the call for CN1CC[C@@H]2[C@@]3(C)CC[C@H](O)C(C)(C)[C@@H]3CC[C@@]2(C)[C@]2(C)CC[C@@]3(CO)CCC(C)(C)C[C@@H]3C12 (some centres undefined) ?
a: inactive

q: Per the assay record, what outcome was assigned to O=C(O)CC1CCN(c2ccc3nnc(Cl)n3n2)CC1 ?
a: inactive

q: Entry O=C(/C=C/Nc1ccc(S(=O)(=O)Nc2ncccn2)cc1)c1ccc(N=Cc2c(O)[nH]c3ccccc23)cc1 : call = ?
a: inactive

q: Call for entry N#C/C(=C\c1ccc(-c2ccc(Cl)cc2)o1)C(=O)Nc1ncc(Cc2ccc(Br)cc2)s1 :
a: active

q: Called result for CN1CCN(Cc2ccc(NC(=O)c3cncc(C#Cc4cnc5ccc(O[C@@H]6CCOC6)nn45)c3)cc2C(F)(F)F)CC1
a: active

---

Field: growth. Provide a value for each of the compounds that follow.
System: PC-3 prostate
Test: NCI-60 one-dose screen, 48 h (100 = growth as untreated, 0 = no growth, -100 = all killed)
Conditions: 10 µM unless noted
Protocol: Growth inhibition of the PC-3 human tumor cell line is measured as a screen for anti-cancer activity. Cells are grown in 96 well plates and exposed to the test compound for 48 hours. Compounds are tested at a single concentration, which is 10^-5 M for most compounds. The reported endpoint is percent growth (GI% or GIPRCNT), where numbers from 0 - 100% represent growth inhibition, and numbers from -100% - 0 represent cell death. For example, a value of 40 represents 60% growth inhibition. […]
About 83,000 compounds went through this panel and 20% of them were active in at least one assay; those are over-represented in the sample as a whole.
Reply with just the number (in %).

q: growth for Cn1cc(-c2cc3ncnc(Nc4ccc(CC(=O)Nc5nc(C(C)(C)C)cs5)cc4)c3s2)cn1 ?
a: 41.4

q: I have this compound here, CC[C@]12C=CCN3CC[C@]4(C(=C(C(=O)OC)C1)Nc1cc5c(cc14)[C@@H]1[C@H](O5)[C@@H](O)[C@@]4(CC)CC(C(=O)OC)=C5Nc6cc(O)ccc6[C@@]56CCN1C46)C32 (stereo partly drawn) , and I need its recorded growth.
a: 20.8

q: I'd like to know its growth. The compound in question is Cc1cc2nc(C(Cl)Cl)nc(-c3ccc(S(=O)(=O)N(C)C)cc3)n2n1
a: 67.4

q: growth lookup needed for CN1CCN(CC#CCn2c3c(c4ccccc42)C[C@]2(C)[C@H]4CC=C5[C@@H]6CC(C)(C)CC[C@]6(C(=O)N6CCOCC6)CC[C@@]5(C)[C@]4(C)CC[C@H]2C3(C)C)CC1 , thanks.
a: 56.7

q: For the compound shown here, O=C(CSc1nnc(-c2cccs2)n1-c1ccccc1)Nc1ccccc1F , give the reported growth.
a: 93.3

q: Consider the compound Brc1cccc(-c2cc(-c3ccc4c(c3)OC=CO4)[nH]n2)c1 and give its measured growth.
a: 54.1

q: Form field: reported growth of CCCCCC[n+]1ccc(SCC(=O)n2ccc3ccccc32)c2ccccc21
a: 83.7

q: Dear colleague, I am looking for the recorded growth of the following compound: Cn1c2nc3ccccc3c-2cc2ccccc21
a: 46.2

---

system: SNB-75 CNS; assay: NCI-60 one-dose screen, 48 h; conditions: 10 µM unless noted
Compounds without any hit were thinned out: in the full panel of roughly 83,000, 20% have a hit. Active and inactive are the calls of the source. Rule for the calls: active = growth percent below 10; inactive = the rest.
Choose the fitting class; nothing outside active, inactive is accepted.

q: Could you kindly confirm the outcome this assay logged for Cc1ccc2c(n1)C(=O)C(Cl)=C(Nc1cccc(C(=O)OC(C)(C)C)c1)C2=O ?
a: inactive

q: Fill in: this test's call for CCc1cc2c(cc1Cl)nc1c(=O)[nH]c(=O)nc-1n2CCOCC(C)C is ___
a: inactive

q: How did this test come out for O=C(CSc1nc2ccccc2c(=O)n1-c1ccc(Cl)cc1)N/N=C/c1ccc(Oc2ccc(Cl)cc2)cc1 ?
a: inactive

q: Assay outcome for COc1ccc(/C(=N\NC(N)=S)c2ccc(Cl)cc2)cc1OC : what was it?
a: active

q: Answer briefly: the call reported for O=S(=O)(NCCCNc1nccc(-c2[nH]c(-c3ccccc3)nc2-c2ccc(F)c(O)c2)n1)c1ccccc1 in this assay.
a: inactive

---

tested on: OVCAR-3 ovarian; test: NCI-60 one-dose screen, 48 h (100 = growth as untreated, 0 = no growth, -100 = all killed); details: 10 µM unless noted
The panel holds about 83,000 compounds, 20% with a hit somewhere; the sample as a whole holds those more often.
property_measured: growth (%)
Write down the numeric answer in % and omit the unit.

q: Lab note: need growth for COc1ccc(-c2cnc(NC(=O)CCCCCCNC(=O)C(O)(O)C(F)(F)F)s2)cc1 on OVCAR-3 ovarian, anyone have it?
a: -50.6

q: // lookup growth | system=OVCAR-3 ovarian | key= O=C(NNc1nc2cc(F)cc(F)c2n2cccc12)c1cccnn1
a: 14

q: Item C=C(C)[C@@H]1CC[C@]2(C(=O)O)CC[C@]3(C)[C@H](CC[C@@H]4[C@@]5(C)C/C(=C/c6ccccn6)C(=O)C(C)(C)[C@@H]5CC[C@]43C)[C@@H]12 with OVCAR-3 ovarian - growth?
a: 40.8

q: Under OVCAR-3 ovarian: growth value of Cc1ccc2c(n1)C(=O)C(Cl)=C(Nc1cccc(C)c1C)C2=O ?
a: -97.8

q: Query growth on OVCAR-3 ovarian for CSc1ccc(/C(=N/N=C(N)N)c2ccc(F)cc2)cc1
a: 27.5

q: What measured growth is associated with CC1=C(C)C(=O)C(Nc2ccc3c(c2)OCCO3)=C(Br)C1=O on OVCAR-3 ovarian?
a: 109

q: # value lookup — system OVCAR-3 ovarian, readout growth, item C#CCN(C)CCCOc1ccc(NC(=O)CCCCCCCCC(=O)NO)cc1Cl
a: 73.7

---

test system: HOP-62 NSCLC; test: NCI-60 one-dose screen, 48 h (100 = growth as untreated, 0 = no growth, -100 = all killed); details: 10 µM unless noted
About 83,000 compounds went through this panel and 20% of them were active in at least one assay; those are over-represented in the sample as a whole.
property_measured: growth (%)
Reply numerically in %, unit not repeated.

q: Give recorded growth with HOP-62 NSCLC for the following compound: CC(C)(C)Nc1nc2c(OCCc3ccccc3)cccn2c1-c1cccc(Oc2ccccc2)c1
a: 11.1

q: For the record NC(=O)c1c(NC(=O)c2ccc(C(F)(F)F)cc2)sc2c1CCC(=O)C2 , what value of growth is listed for HOP-62 NSCLC?
a: 13.5

q: Give recorded growth with HOP-62 NSCLC for the following compound: COc1cc(C(C)=C(c2ccc(OCCN(C)C)cc2)c2ccc(OCCN(C)C)cc2)ccc1F
a: 97.2

q: Provide value of growth for this record tested with HOP-62 NSCLC: COc1ccc2c(c1)c(-c1nc(N)nnc1-c1c[nH]c3ccccc13)cn2C
a: 44.8

q: API: value(readout=growth, system=HOP-62 NSCLC) for record Cc1cc(=O)oc2cc(OCCCOc3ccc(/C=C/C(=O)Nc4ccc(Br)cc4)cc3)ccc12
a: 85.2

q: Hello, I am looking for reported growth with HOP-62 NSCLC for N#C/C(=C\c1ccc(-c2ccc(Cl)c(Cl)c2)o1)C(=O)Nc1ncc(Cc2ccc(Cl)cc2)s1 . Could you help?
a: 72.1

q: Short answer please: growth, HOP-62 NSCLC, entry COc1ccc(C2C(C#N)=C(/N=C/c3ccc(Cl)cc3)Oc3c2sc2c(C)cccc32)cc1 (stereo not drawn)
a: 29.8

q: Value wanted: growth (HOP-62 NSCLC) of entry COc1ccc(OC)c(NC(=O)CCCCCCNC(=O)C(O)(O)C(F)(F)F)c1
a: 36.8

q: Checklist item: growth tested on HOP-62 NSCLC, entry CN1CCN(CC#CCn2c3c(c4ccccc42)C[C@]2(C)[C@H]4CC=C5[C@@H]6CC(C)(C)CC[C@]6(C(=O)N6CCOCC6)CC[C@@]5(C)[C@]4(C)CC[C@H]2C3(C)C)CC1 , value?
a: 91.7

q: Notebook entry, HOP-62 NSCLC assay: growth of N#Cc1cnc2ccc(-c3cnc4n[nH]nc4c3)cc2c1N1CCc2cc(F)c(Cl)cc21 = ?
a: 11.8

q: Report growth for OCC(Nc1ncnc2ccc(-c3cnc4cnccn34)cc12)c1ccccc1 (stereo not drawn) tested on HOP-62 NSCLC.
a: 79.8

q: Request body: readout growth, system HOP-62 NSCLC, query CC(C)(C)Nc1nc2c(OCCc3ccccc3)cccn2c1-c1ccc([N+](=O)[O-])cc1 . Return the value.
a: 78.1

q: Test system HOP-62 NSCLC; read-out growth; what value for N#Cc1cccc(-c2cc(-c3ccc4c(c3)OCCO4)[nH]n2)c1 ?
a: 43.5

q: Give growth (HOP-62 NSCLC) of the following compound: COc1cc(/C=N\NC(=O)c2ccc3nc(-c4ccc(Br)cc4)[nH]c3c2)cc(OC)c1OC
a: 72.6

q: Under HOP-62 NSCLC: growth value of CC1(C)CC[C@]2(C(=O)O)CC[C@]3(C)C(=CC[C@@H]4[C@@]5(C)CC[C@H](NOCCCN)C(C)(C)[C@@H]5CC[C@]43C)[C@@H]2C1 ?
a: 102

q: Entry CC1=C(C)C(=O)C(Nc2ccc(C)c(C)c2)=C(Br)C1=O , system HOP-62 NSCLC: what growth was measured?
a: 104

q: Request: growth, test system HOP-62 NSCLC, entry Cc1ccc2c(n1)C(=O)C(Cl)=C(Nc1ccccc1C(=O)OC(C)(C)C)C2=O
a: 95.3

q: Give HOP-62 NSCLC growth for CCc1cc(O)ccc1Nc1cc(-c2ccc(-n3cccn3)cc2)[nH]n1
a: 37
